interaction data at Target Concentration 10 listing for selected sequences.
# measurement target: CHIP (Homo sapiens, UniProt Q9UNE7)
# Construct: N-term truncated CHIP (also known as STUB1, Uniprot ID: Q9UNE7, residues 23-303); made in house; host or cells: E. coli BL21 CodonPlus
# Sequence (Q9UNE7 23-303): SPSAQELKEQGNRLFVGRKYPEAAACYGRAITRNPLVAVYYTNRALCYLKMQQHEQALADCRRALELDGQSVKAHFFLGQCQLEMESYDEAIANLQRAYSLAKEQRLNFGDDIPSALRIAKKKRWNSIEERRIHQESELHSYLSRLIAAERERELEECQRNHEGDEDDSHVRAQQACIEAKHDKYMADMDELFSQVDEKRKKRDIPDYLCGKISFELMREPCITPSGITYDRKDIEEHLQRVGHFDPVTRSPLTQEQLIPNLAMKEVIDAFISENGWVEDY
# assay notes: Naive Library Presenter Screening (phage, NGS), CHIP
# Assay type: binding
# assay setup: CHIP target concentration 10 nM
# Experimental: To conduct phage library screening, previously described procedures were utilized in accordance with the present disclosure. Next-generation sequencing was performed as described in accordance with the present disclosure. Hit ID and Clustering is performed according to a described procedure in accordance with the present disclosure.
Numbered stars: 1 amine (or outer) side, 2 acyl side, 3 side chain; on linkers, the order of the positions; unused ones are H or OH. Bridge positions count the residues as written; N and C are the ends. Ends that are not written are not given here. Phenylene(1,4-NHCOCH2)2 = O=C(C[*:1])Nc1ccc(NC(=O)C[*:2])cc1

Look over these answered cases.
- seq text: "ICYNAWVECE (linker 2-9 via Phenylene(1,4-NHCOCH2)2 (inferred))"
  test result: 1
- seq text: "ICWAAWVSCS (linker 2-9 via Phenylene(1,4-NHCOCH2)2 (inferred))"
  test result: 0
- seq text: "ICYNARLECE (linker 2-9 via Phenylene(1,4-NHCOCH2)2 (inferred))"
  test result: 1
- seq text: "ICYTAWLECE (linker 2-9 via Phenylene(1,4-NHCOCH2)2 (inferred))"
  test result: 0
- seq text: "PMCSDAWLFCE (linker 3-10 via Phenylene(1,4-NHCOCH2)2 (inferred))"
  test result: 0

Query: I'm curious: which interaction data at Target Concentration 10 was measured for PCWNAWMVCSV (linker 2-9 via Phenylene(1,4-NHCOCH2)2 (inferred)) tested on CHIP (Homo sapiens, UniProt Q9UNE7)?
Reply: 2

Query: Return interaction data at Target Concentration 10 measured with CHIP (Homo sapiens, UniProt Q9UNE7) given this sequence: ICYNAWLECA (linker 2-9 via Phenylene(1,4-NHCOCH2)2 (inferred))
Reply: 0

Query: CHIP (Homo sapiens, UniProt Q9UNE7) / interaction data at Target Concentration 10 / PCFEAWVMCEI (linker 2-9 via Phenylene(1,4-NHCOCH2)2 (inferred)) : value?
Reply: 4
